B1: FEM1A (parent)
chain: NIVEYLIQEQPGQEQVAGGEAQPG

variants of: B1; assay: protein stability index of a GFP-peptide fusion (GPS, HEK-293T) (PSI 1-6); higher = more stable; details: c terminus: a fixed tail appended;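 note: lentivirally expressed fusions sorted by FACS into six bins by GFP to DsRed ratio, PSI derived from sequencing read proportions per bin multiplied by bin number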
assay_readout: protein stability index
// return a plain number; no unit text

seq_text	protein stability index
NIVEELIQEQPGQEQVAGGEAQPG [Y5E]	5.66
NIVEYLIQEQPGQEQSAGGEAQPG [V16S]	3.86
NIVEYLIQEQPGQEQVAQGEAQPG [G18Q]	4.7
NIVEYLIQEQVGQEQVAGGEAQPG [P11V]	3.28

Consider the variant NIVEYLIQCQPGQEQVAGGEAQPG [E9C] and give its measured protein stability index. 3

Consider the variant NIVEYLIQEPPGQEQVAGGEAQPG [Q10P] and give its measured protein stability index. 4.54

Consider the variant NIVEYLHQEQPGQEQVAGGEAQPG [I7H] and give its measured protein stability index. 4.74

Consider the variant NIVEYLIQEQKGQEQVAGGEAQPG [P11K] and give its measured protein stability index. 3.74

Consider the variant NIVEYLIQEQPGQEQVDGGEAQPG [A17D] and give its measured protein stability index. 4.97

Consider the variant NIVEYLIQEQPGQEQMAGGEAQPG [V16M] and give its measured protein stability index. 4.68

Consider the variant NIVEYLIQEQPGQEQVAGGEAQPY [G24Y] and give its measured protein stability index. 3.51

Consider the variant NIVEQLIQEQPGQEQVAGGEAQPG [Y5Q] and give its measured protein stability index. 5.08

Consider the variant NWVEYLIQEQPGQEQVAGGEAQPG [I2W] and give its measured protein stability index. 2.59

Consider the variant NIVEYLIQEQPGQEYVAGGEAQPG [Q15Y] and give its measured protein stability index. 3.67

Consider the variant AIVEYLIQEQPGQEQVAGGEAQPG [N1A] and give its measured protein stability index. 2.91

Consider the variant NIVEYLIVEQPGQEQVAGGEAQPG [Q8V] and give its measured protein stability index. 3.34
